B1: mRNA-splicing (parent)
chain: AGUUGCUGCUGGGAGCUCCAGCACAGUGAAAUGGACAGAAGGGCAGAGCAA

Variants of: B1
Assay: exon inclusion enrichment index; higher = more inclusion; WT1 exon 5 minigene, HEK293
Assign class by exon inclusion enrichment index: not lower than 0.1 means yes (1); lower than 0.1 means no (0).

Consider the following illustrative entries.
{"mutations": "G5C C6A U7C G8A U10A C22G A23C", "class": "no (0)"}
{"mutations": "G5A C6A U7C C9A", "class": "yes (1)"}
{"mutations": "G5C C6G U7C U10C C24G A25C", "class": "yes (1)"}
{"mutations": "A40C G41C", "class": "yes (1)"}
{"mutations": "G5A C6U U7A G8U C9A A40C", "class": "yes (1)"}

Hi team, for G5C C6G U7C U10C A25C G26U , is the recorded exon inclusion enrichment index at or above 0.1?
yes (1)

Would you say G5U G8U C9U C44G A45G shows exon inclusion enrichment index at minimum 0.1?
no (0)

Is it the case that G5C C6A U7C G8A U10C G11C has exon inclusion enrichment index reaching or exceeding 0.1?
yes (1)

Could you tell me if the measured exon inclusion enrichment index of C6A U7A C9A U10A G15C C16G reaches 0.1 or more?
yes (1)

Please indicate if the recorded exon inclusion enrichment index for G5U C9G meets or exceeds 0.1.
yes (1)
